Assay: Volume of distribution at steady state in Han Wistar rat at 0.25 mg/kg, iv up to 7 hrs by LC-MS/MS analysis
Type: ADME, organism-based
Design: dose 0.25 mg/kg, route intravenous
Details: in vivo, read-out: Vdss
MEASURED_QUANTITY: Vd

Query block: For the compound shown here, CC(=O)O.O=S(=O)(c1cccc(CCCCOCCCCCCNC[C@H](O)c2ccc(O)c(CO)c2)c1)C1CCCC1 , give the reported Vd.
Result block: 1.1 L/kg

====

Target: UniProt:P28222
Sequence (P28222 whole entry): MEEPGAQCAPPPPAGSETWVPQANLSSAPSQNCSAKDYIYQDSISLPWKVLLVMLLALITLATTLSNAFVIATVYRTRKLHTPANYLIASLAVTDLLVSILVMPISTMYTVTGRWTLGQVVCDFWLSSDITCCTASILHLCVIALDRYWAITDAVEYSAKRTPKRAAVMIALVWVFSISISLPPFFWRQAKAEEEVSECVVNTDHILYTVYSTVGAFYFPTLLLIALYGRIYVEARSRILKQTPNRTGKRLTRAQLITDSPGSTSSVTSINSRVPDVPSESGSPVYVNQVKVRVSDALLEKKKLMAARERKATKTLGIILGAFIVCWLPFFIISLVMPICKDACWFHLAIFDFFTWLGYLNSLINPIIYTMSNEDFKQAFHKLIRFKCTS
MEASURED_QUANTITY: IC50 (nM)
Field format: number, assumed nM, no unit text.

Query block: For the compound shown here, CC(=O)O.O=S(=O)(c1cccc(CCCCOCCCCCCNC[C@H](O)c2ccc(O)c(CO)c2)c1)C1CCCC1 , give the reported IC50.
Result block: 100
